ASSAY_PROCEDURE: NCI Yeast Anticancer Drug Screen. Data for the mec2-1 strain (AID 157)
STATED_CONDITIONS: S. cerevisiae mec2-1 strain, at 50.0 µM, active compounds read high
About 79,000 compounds went through this panel and 15% of them were active in at least one assay; those are over-represented in the sample as a whole.
RECORDED_ENDPOINT: growth inhibition (%)
Give bare numbers, in %.

// below: answered compounds
# COMPOUND, growth inhibition [%]
measured = [
    ("Cc1ccc2c(c1)C(=S)N1CSCC1c1nncn1-2 (stereo not drawn)", 30),
    ("CCC1(O)N=C(c2ccccc2)c2ccccc2-n2cccc21 (stereo not drawn)", 4.25),
]

Items follow; give growth inhibition for each.
1. O=C1CCC(=O)N1c1ccc([As](=O)(O)O)cc1
2. Cc1ccc(NN=O)nc1
3. CC(NC1=NCCO1)c1ccsc1 (stereo not drawn)
4. Clc1ccc(C(c2ccccc2Cl)C(Cl)(Cl)Cl)cc1 (stereo not drawn)
5. CC/C=C/C1(C)C(=O)NC(=S)NC1=O
6. CC1OC(OC2CCC3(C=O)C4CCC5(C)C(C6=CC(=O)OC6)CCC5(O)C4CCC3(O)C2)C(O)C(O)C1O (stereo not drawn)

RESULT:
1: -9.15; 2: 3.15; 3: 12.6; 4: -7.8; 5: 3.1; 6: -8.35
